The reported measurements were obtained from paper PMC3723589.

# EXPERIMENTAL SYSTEM: mouse Slo1 K+ channels (Mus musculus, UniProt Q08460)
# Sequence (Q08460 66-1209 limits assumed): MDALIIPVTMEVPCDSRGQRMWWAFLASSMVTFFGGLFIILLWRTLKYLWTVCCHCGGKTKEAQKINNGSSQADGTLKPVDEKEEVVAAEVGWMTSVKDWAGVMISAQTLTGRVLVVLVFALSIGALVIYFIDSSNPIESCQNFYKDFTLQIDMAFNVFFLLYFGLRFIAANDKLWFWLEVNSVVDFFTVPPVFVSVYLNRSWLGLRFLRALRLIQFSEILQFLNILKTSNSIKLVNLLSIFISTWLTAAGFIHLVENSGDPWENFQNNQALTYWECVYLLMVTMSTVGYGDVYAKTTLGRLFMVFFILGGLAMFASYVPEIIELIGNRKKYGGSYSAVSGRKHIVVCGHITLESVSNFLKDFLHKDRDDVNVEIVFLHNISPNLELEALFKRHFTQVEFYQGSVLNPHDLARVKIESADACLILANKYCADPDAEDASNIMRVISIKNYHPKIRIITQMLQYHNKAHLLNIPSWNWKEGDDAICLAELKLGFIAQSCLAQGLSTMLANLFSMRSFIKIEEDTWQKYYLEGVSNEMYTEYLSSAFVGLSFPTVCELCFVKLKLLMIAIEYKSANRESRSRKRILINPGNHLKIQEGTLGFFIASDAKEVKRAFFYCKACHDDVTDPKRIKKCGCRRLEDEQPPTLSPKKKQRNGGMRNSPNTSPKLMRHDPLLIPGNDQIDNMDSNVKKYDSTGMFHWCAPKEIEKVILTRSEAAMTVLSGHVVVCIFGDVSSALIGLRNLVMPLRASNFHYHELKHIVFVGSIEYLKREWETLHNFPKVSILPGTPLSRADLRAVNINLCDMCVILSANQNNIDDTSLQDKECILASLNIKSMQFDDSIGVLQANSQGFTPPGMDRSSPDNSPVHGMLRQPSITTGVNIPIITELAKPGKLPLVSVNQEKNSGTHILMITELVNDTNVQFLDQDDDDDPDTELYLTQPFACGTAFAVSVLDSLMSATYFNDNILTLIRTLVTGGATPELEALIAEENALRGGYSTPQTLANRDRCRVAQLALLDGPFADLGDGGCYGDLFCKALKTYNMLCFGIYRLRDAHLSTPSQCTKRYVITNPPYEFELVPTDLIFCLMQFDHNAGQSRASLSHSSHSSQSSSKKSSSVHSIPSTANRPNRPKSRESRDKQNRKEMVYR
# ASSAY OVERVIEW: Block of Slo1 currents, blocker applied cytosolically to inside-out patches
# Type: cell-based
# PARTICULARS: read-out: Kbc; cytosolic TEA; 300 μM Ca2+, pH 8.5; fit OB-CB (2') 4 params
ASSAY ENDPOINT: Kd (mM)
Dear colleague, please return just the value in mM, with no unit written.

Prompt: Recorded Kd of CC[N+](CC)(CC)CC [TEA, tetraethylammonium] , please.
Completion: 61.4

----------
# EXPERIMENTAL SYSTEM: MC13 (Slo1(1-181):Slo3(171-1121)) (Mus musculus, UniProt O54982)
# Sequence (O54982 171-1121): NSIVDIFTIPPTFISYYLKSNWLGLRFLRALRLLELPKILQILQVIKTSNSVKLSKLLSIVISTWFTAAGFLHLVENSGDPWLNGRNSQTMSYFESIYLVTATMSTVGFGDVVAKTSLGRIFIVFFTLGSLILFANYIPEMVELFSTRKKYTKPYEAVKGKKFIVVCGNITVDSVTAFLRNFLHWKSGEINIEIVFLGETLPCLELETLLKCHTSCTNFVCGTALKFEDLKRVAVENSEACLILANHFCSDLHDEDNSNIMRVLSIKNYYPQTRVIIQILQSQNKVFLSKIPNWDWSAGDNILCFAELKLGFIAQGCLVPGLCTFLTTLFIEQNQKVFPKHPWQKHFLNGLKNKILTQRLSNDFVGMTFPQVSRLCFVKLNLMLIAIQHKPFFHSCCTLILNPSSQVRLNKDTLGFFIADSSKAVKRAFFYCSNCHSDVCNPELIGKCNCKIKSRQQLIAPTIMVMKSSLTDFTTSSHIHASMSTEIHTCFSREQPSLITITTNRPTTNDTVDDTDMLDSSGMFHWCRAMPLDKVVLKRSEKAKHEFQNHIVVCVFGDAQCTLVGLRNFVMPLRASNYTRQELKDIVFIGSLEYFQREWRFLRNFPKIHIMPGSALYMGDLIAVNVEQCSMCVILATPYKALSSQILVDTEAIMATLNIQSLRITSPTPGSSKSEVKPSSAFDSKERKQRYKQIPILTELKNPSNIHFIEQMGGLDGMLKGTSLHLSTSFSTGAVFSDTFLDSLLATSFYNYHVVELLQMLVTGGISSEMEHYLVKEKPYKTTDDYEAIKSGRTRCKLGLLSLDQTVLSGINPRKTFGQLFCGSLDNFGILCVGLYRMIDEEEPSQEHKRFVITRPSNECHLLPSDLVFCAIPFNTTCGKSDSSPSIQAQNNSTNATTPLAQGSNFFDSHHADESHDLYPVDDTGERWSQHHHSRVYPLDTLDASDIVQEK
# Sequence (Q08460 66-246 partner): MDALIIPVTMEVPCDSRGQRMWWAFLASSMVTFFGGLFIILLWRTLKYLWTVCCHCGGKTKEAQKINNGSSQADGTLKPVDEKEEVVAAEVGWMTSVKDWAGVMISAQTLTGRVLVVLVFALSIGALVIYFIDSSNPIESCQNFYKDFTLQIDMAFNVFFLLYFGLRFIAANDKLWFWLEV
# Format: cell-based
# PARTICULARS: read-out: Kbo; cytosolic TEA; 0 Ca2+, pH 8.5; fit OB-CB (2') zo = zc = 0 e
ASSAY ENDPOINT: Kd (µM)
Dear colleague, please return just the value in µM, with no unit written.

Prompt: Tell me reported Kd for CC[N+](CC)(CC)CC , tested with MC13 (Slo1(1-181):Slo3(171-1121)) (Mus musculus, UniProt O54982).
Completion: 560

----------
# EXPERIMENTAL SYSTEM: mouse Slo1 K+ channels (Mus musculus, UniProt Q08460)
# ASSAY OVERVIEW: Block of Slo1 currents, blocker applied extracellularly to outside-out patches
# Type: cell-based
# PARTICULARS: Kbc, extracellular quinidine; 300 μM Ca2+, pH 8.5; fit OB-CB (2') 4 params
ASSAY ENDPOINT: pKd
Bear in mind: pKd is minus log10 of a mol/L concentration; give just that figure.

Prompt: Recorded pKd of C=C[C@H]1C[N@@]2CC[C@H]1C[C@@H]2[C@@H](O)c1ccnc2ccc(OC)cc12 , please.
Completion: 2.92

----------
# EXPERIMENTAL SYSTEM: mouse Slo1 K+ channels (Mus musculus)
# ASSAY OVERVIEW: Block of Slo1 currents, blocker applied extracellularly to outside-out patches
# Type: cell-based
# PARTICULARS: Kbo, extracellular quinidine; 300 μM Ca2+, pH 8.5; fit OB-CB (2a) 2 params
ASSAY ENDPOINT: Kd (mM)
Dear colleague, please return just the value in mM, with no unit written.

Prompt: Tell me reported Kd for C=C[C@H]1C[N@@]2CC[C@H]1C[C@@H]2[C@@H](O)c1ccnc2ccc(OC)cc12 [quinidine] , tested with mouse Slo1 K+ channels (Mus musculus).
Completion: 1.49

----------
# EXPERIMENTAL SYSTEM: MC13 (Slo1(1-181):Slo3(171-1121)) (Mus musculus, UniProt O54982)
# Type: cell-based
# PARTICULARS: read-out: Kbo; cytosolic TEA; 0 Ca2+, pH 8.5; fit OB (1a) zo = 0 e
ASSAY ENDPOINT: Kd (µM)
Dear colleague, please return just the value in µM, with no unit written.

Prompt: Recorded Kd of CC[N+](CC)(CC)CC , please.
Completion: 330

----------
# EXPERIMENTAL SYSTEM: mouse Slo1 K+ channels (Mus musculus, UniProt Q08460)
# ASSAY OVERVIEW: Block of Slo1 currents, blocker applied extracellularly to outside-out patches
# Format: cell-based
# PARTICULARS: Kbo, extracellular quinidine pH 7.0; 300 μM Ca2+, pH 8.5; fit OB (1a) 2 params
ASSAY ENDPOINT: Kd (µM)
Dear colleague, please return just the value in µM, with no unit written.

Prompt: Recorded Kd of C=C[C@H]1C[N@@]2CC[C@H]1C[C@@H]2[C@@H](O)c1ccnc2ccc(OC)cc12 , please.
Completion: 950

----------
# EXPERIMENTAL SYSTEM: mouse Slo1 K+ channels (Mus musculus)
# ASSAY OVERVIEW: Block of Slo1 currents, blocker applied extracellularly to outside-out patches
# Type: cell-based
# PARTICULARS: Kbo, extracellular quinidine; 300 μM Ca2+, pH 8.5; fit OB-CB (2') 4 params
ASSAY ENDPOINT: pKd
Bear in mind: pKd is minus log10 of a mol/L concentration; give just that figure.

Prompt: Recorded pKd of C=C[C@H]1C[N@@]2CC[C@H]1C[C@@H]2[C@@H](O)c1ccnc2ccc(OC)cc12 , please.
Completion: 2.82

----------
# EXPERIMENTAL SYSTEM: MC13 (Slo1(1-181):Slo3(171-1121)) (Mus musculus, UniProt O54982)
# Assay type: cell-based
# PARTICULARS: read-out: Kbc; cytosolic TEA; 0 Ca2+, pH 8.5; fit OB-CB (2a) 2 params
ASSAY ENDPOINT: Kd
Please state the number and follow it with the unit.

Prompt: Tell me reported Kd for CC[N+](CC)(CC)CC [TEA, tetraethylammonium] , tested with MC13 (Slo1(1-181):Slo3(171-1121)) (Mus musculus, UniProt O54982).
Completion: 2010 µM

----------
# EXPERIMENTAL SYSTEM: mouse Slo1 K+ channels (Mus musculus)
# ASSAY OVERVIEW: Block of Slo1 currents, blocker applied cytosolically to inside-out patches
# Assay type: cell-based
ASSAY ENDPOINT: pKd
Bear in mind: pKd is minus log10 of a mol/L concentration; give just that figure.

Prompt: Tell me reported pKd for C=C[C@H]1C[N@@]2CC[C@H]1C[C@@H]2[C@@H](O)c1ccnc2ccc(OC)cc12 [quinidine] , tested with mouse Slo1 K+ channels (Mus musculus).
Completion: 3.68
